biological target: hNTS2 (Homo sapiens, UniProt O95665); construct: expressed in transfected cells; host or cells: CHO-K1; assay: Radioligand competition binding with [3H]NT, membranes of CHO-K1 cells expressing hNTS2; conditions: Table 2; read-out: hNTS2 Geometric Mean ∀ SEM (equilibrium dissociation constant Kd)
Sequence (O95665 whole entry): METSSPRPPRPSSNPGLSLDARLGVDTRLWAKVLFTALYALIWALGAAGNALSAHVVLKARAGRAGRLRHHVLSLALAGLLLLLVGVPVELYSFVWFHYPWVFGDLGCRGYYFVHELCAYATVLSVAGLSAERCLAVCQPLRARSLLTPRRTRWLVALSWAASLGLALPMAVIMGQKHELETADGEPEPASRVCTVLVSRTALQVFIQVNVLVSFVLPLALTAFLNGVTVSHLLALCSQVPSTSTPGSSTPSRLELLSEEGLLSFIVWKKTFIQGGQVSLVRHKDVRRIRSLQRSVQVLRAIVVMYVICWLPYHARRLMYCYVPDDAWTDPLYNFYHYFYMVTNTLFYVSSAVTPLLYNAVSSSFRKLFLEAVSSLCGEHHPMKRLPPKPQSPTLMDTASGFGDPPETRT
pKd: −log10 of the molar value. Where a SMILES comes first, the peptide text is derived from it. [ ]: non-standard residue; d: D form. dOrn = NCCC[C@@H](N)C(=O)O
measurementType: pKd

Answered cases to consult:
Exercise: Lab request: please report pKd under test system hNTS2 (Homo sapiens, UniProt O95665) for CC[C@H](C)[C@H](NC(=O)[C@H](Cc1ccc(O)cc1)NC(=O)[C@@H]1CCCN1C(=O)[C@@H](CCCNC(=N)N)NC(=O)[C@@H](N)CCCCN)C(=O)N[C@@H](CC(C)C)C(=O)O [NT16, [L-Lys^8,D-Arg^9]NT(8-13)] (H-K[dR]PYIL-OH; N-terminus and C-terminus assumed)
Key: 7.40

Exercise: Lab request: please report pKd under test system hNTS2 (Homo sapiens, UniProt O95665) for CC[C@H](C)[C@H](NC(=O)[C@@H](Cc1ccc(O)cc1)NC(=O)[C@@H]1CCCN1C(=O)[C@@H](CCCN)NC(=O)[C@@H](N)CCCNC(=N)N)C(=O)N[C@@H](CC(C)C)C(=O)O [NT37, [D-Orn^9,D-Tyr^11]NT(8-13)] (H-R[dOrn]P[dY]IL-OH; N-terminus and C-terminus assumed)
Key: 5.74

A. CC[C@H](C)[C@H](NC(=O)[C@H](Cc1ccc(O)cc1)NC(=O)[C@@H]1CCCN1C(=O)[C@H](CCCN)NC(=O)[C@@H](N)CCCN)C(=O)N[C@@H](CC(C)C)C(=O)O [NT25, [L-Orn^8,L-Orn^9]NT(8-13)]
B. CC[C@H](C)[C@H](NC(=O)[C@H](Cc1cccc2ccccc12)NC(=O)[C@@H]1CCCN1C(=O)[C@H](CCCNC(=N)N)NC(=O)[C@@H](N)CCCNC(=N)N)C(=O)N[C@@H](CC(C)C)C(=O)O [NT49, [L-3,1-Nal^11]NT(8-13)]
Exercise: Smaller pKd value, A vs B ? Which one? Tell me its label.
Key: A
(A: 8.41, B: 8.89)
